Data credit: PubChem BioAssay (NCATS)

Assay: qHTS profiling for inhibitors of Plasmodium falciparum proliferation (AID 504749);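 note: 0% = DMSO vehicle and full inhibition = artemisinin control; nearly all actives have a fitted effect of over 60% in size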
Settings: P. falciparum in erythrocytes, SYBR Green DNA, 72 h; at 28.7 µM (top of the series); parasite line A
Experimental: NIH National Institute of Allergy and Infectious Diseases [NIAID] NIH Chemical Genomics Center [NCGC] […] Because mature erythrocytes lack DNA, only Plasmodium-derived DNA is detected. NCGC Assay Protocol Summary: The SYBR Green viability assay was adapted from a method described previously (Plouffe et al., 2008). […] The following morning, fluorescence intensity at 485(14) nm excitation and 535(25) nm emission wavelengths was measured on an EnVision (Perkin Elmer) plate reader. […]
Inconclusive results are not listed. The source made the active and inactive calls. Calls come from the whole dose curve; as a rule, active = well fitted inhibition curve with a large enough effect; inconclusive = small, poorly fitted or top-dose-only effect; inactive = flat fitted curve, though single readings scatter.
Parameter: activity, negative = inhibition. Scope: all listed entries.

Cc1c(C)c2c(c(C)c1O)CCC(C)(CCCC(C)CCCC(C)CCCC(C)C)O2 (stereo unspecified) = 15.7% (inactive)
C[C@]12C=CC(=O)N[C@@H]1CC[C@@H]1C2CC[C@]2(C)C(C(=O)Nc3cc(C(F)(F)F)ccc3C(F)(F)F)CC[C@@H]12 (stereo partly specified) = -5.45% (inactive)
CCCCCOC(=O)Nc1nc(=O)n(C2O[C@H](C)[C@@H](O)[C@@H]2O)cc1F (stereo partly specified) = -10.4% (inactive)
O=C(O)CC(O)CC(O)/C=C/c1c(C2CC2)nc2ccccc2c1-c1ccc(F)cc1 (stereo unspecified) = 5.32% (inactive)
COc1ccc(C(=O)/C(Br)=C/C(=O)O)cc1 = -21.1% (inactive)
OCC(CO)NC1C[C@](O)(CO)[C@@H](O)[C@H](O)[C@H]1O (stereo partly specified) = 8.78% (inactive)

-- ask Return reported activity, negative = inhibition; argument: "Cc1cnc(C(=O)O)cn1"
-- reply 9.61% (inactive)

-- ask Continue with CC(=O)CC(c1ccccc1)C1C(=O)Oc2ccccc2C1=O (stereo unspecified)
-- reply 13.7% (inactive)

-- ask Continue with CCC1OC(=O)C[C@H](O)C(C)[C@@H](O[C@@H]2OC(C)C(O)C(N(C)C)C2O)C(CCN2CC(C)CC(C)C2)CC(C)C(=O)/C=C/C(C)=C\[C@@H]1COC1OC(C)C(O)C(OC)C1OC (stereo partly specified)
-- reply -29.2% (inactive)

-- ask Continue with CC[C@H]1OC(=O)[C@H](C)C(=O)[C@H](C)[C@@H](OC2O[C@H](C)C[C@H](N(C)C)[C@@H]2O)[C@@](C)(OC)C[C@@H](C)C(=O)[C@@H](C)C2N(CCCCn3cnc(-c4cccnc4)c3)C(=O)O[C@@]21C (stereo partly specified)
-- reply -28.5% (inactive)

-- ask Continue with CC1OC(OC2CCC3(C)C(CCC4C3CC(O)C3(C)C(C5=CC(=O)OC5)CCC43O)C2)CC(O)C1OC1CC(O)C(OC2CC(O)C(OC3OC(CO)C(O)C(O)C3O)C(C)O2)C(C)O1 (stereo unspecified)
-- reply 13.2% (inactive)

-- ask Continue with CNC1CCc2cc(OC)c(OC)c(OC)c2-c2ccc(OC)c(=O)cc21 (stereo unspecified)
-- reply -5.32% (inactive)

-- ask Continue with C[C@@H]1C(SC2Cn3cnc[n+]3C2)=C(C(=O)[O-])N2C(=O)[C@H]([C@@H](C)O)[C@@H]12 (stereo partly specified)
-- reply 6.33% (inactive)

-- ask Continue with COc1cccc(OC)c1C(=O)NC1C(=O)N2C1SC(C)(C)C2C(=O)O (stereo unspecified)
-- reply 11.2% (inactive)

-- ask Continue with CCN1CCN(C(=O)NC(C(=O)NC2C(=O)N3C(C(=O)O)=C(CSc4nnnn4C)CSC23)c2ccc(O)cc2)C(=O)C1=O (stereo unspecified)
-- reply 1.12% (inactive)

-- ask Continue with "OC[C@@H]1O[C@](CO)(O[C@H]2O[C@H](CO)[C@@H](O)[C@H](O)[C@H]2O)[C@H](O)[C@H]1O"
-- reply -1.62% (inactive)
